tested-system: Cytochrome P450 2D6 (Homo sapiens)
test-details: qHTS Assay for Inhibitors and Substrates of Cytochrome P450 2D6 (AID 891); further: nearly all actives have a fitted effect of over 60% in size
experimental-parameters: recombinant CYP2D6, luciferin-ME EGE luminescence; series mostly up to 57.1 µM
Results filed as inconclusive are left out. The source made the active and inactive calls. The call rests on the fitted dose curve; in most records, active means well fitted inhibition curve with a large enough effect; inconclusive means small, poorly fitted or top-dose-only effect; inactive means no such curve, though single readings can be large or run the other way.
Possible outcomes: y (active), n (inactive)

{"chem-smiles": "CN1CCc2cccc3c2[C@@H]1Cc1ccc(O)c(O)c1-3", "tested-system": "Cytochrome P450 2D6 (Homo sapiens)", "group-label": "n"}
{"chem-smiles": "O=S(=O)(c1ccccc1)N1CCC[C@@]2(CCN(C(c3ccccc3)c3ccccc3)C2)C1", "tested-system": "Cytochrome P450 2D6 (Homo sapiens)", "group-label": "y"}
{"chem-smiles": "CN(C)c1ccc(-c2nc(N(C)C)c3ccccc3n2)cc1", "tested-system": "Cytochrome P450 2D6 (Homo sapiens)", "group-label": "y"}
{"chem-smiles": "COc1c(O)cc2oc3cc(O)c(CC=C(C)C)c(O)c3c(=O)c2c1CC=C(C)C", "tested-system": "Cytochrome P450 2D6 (Homo sapiens)", "group-label": "y"}
{"chem-smiles": "O=S(=O)(c1ccccc1)N1CCC2(CC1)CN(C(c1ccccc1)c1ccccc1)C2", "tested-system": "Cytochrome P450 2D6 (Homo sapiens)", "group-label": "y"}
